Biological target: Decaprenylphosphoryl-beta-D-ribose oxidase (Mycobacterium tuberculosis (strain ATCC 25618 / H37Rv)) (UniProt P9WJF1)
Sequence (P9WJF1 whole entry): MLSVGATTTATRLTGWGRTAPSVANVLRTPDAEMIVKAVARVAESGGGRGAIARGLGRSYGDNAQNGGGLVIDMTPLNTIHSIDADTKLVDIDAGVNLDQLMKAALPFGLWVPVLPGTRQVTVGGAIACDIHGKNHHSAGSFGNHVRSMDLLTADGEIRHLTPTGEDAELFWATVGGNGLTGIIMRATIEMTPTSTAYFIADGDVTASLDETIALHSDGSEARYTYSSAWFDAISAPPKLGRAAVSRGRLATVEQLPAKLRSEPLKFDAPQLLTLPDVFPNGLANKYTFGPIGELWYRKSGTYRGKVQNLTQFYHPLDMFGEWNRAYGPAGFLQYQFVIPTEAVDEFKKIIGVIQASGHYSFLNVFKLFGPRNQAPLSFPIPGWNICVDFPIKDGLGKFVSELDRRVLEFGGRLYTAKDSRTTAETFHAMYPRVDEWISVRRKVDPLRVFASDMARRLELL
Assay: Inhibition of DprE1 in Mycobacterium tuberculosis H37Rv assessed as accumulation of trehalose monomycolates at 100 times MIC measured after 24 hrs in presence of [14C]-acetate by TLC-based autoradiography
The source made the active and inactive calls. The rule behind the calls is not given here.
Your reply should match one of these outcome classes. y = active, n = inactive

O=[N+]([O-])c1cc(-c2nnc(SCc3ccccc3)n2Cc2ccccc2)cc([N+](=O)[O-])c1 y
CCCCCCn1c(SCc2cc([N+](=O)[O-])cc([N+](=O)[O-])c2)nnc1-c1ccccc1 n
COc1ccc(Cn2c(SCc3cc([N+](=O)[O-])cc([N+](=O)[O-])c3)nnc2-c2ccccc2)cc1 n

--- query ---
**Query** Given `COc1ccc(CSc2nnc(-c3cc([N+](=O)[O-])cc([N+](=O)[O-])c3)n2Cc2ccccc2)cc1` , state the outcome it received in this test.
**Result** y

Every entry's value here was drawn from ChEMBL document CHEMBL4373711.
